- System: CCRF-CEM
- Experiment notes: Antiproliferative activity against reduced folate carrier-deficient CCRF-CEM cell line
- Assay type: functional, cell-based
- Condition details: Homo sapiens
Reported endpoint: pIC50
Answers are plain numbers, as −log10 of the molar value.

{"Molecule": "Nc1nc(N)c(CCCC(C(=O)C(F)(F)F)c2ccc(C(=O)N[C@@H](CCc3nnn[nH]3)C(=O)O)cc2)c(=O)[nH]1 (some centres undefined)", "pIC50": 5.00}

response.value for Nc1nc(N)c(CCCC(C(=O)C(F)(F)F)c2ccc(C(=O)NCc3nnn[nH]3)cc2)c(=O)[nH]1 (centres undefined) (field: pIC50) = 4.52
